Organism: Rattus norvegicus
MEASUREMENT_DESCRIPTION: Open TG-GATES - Regimen: Single
Assay type: toxicity, organism-based, Sprague-Dawley
Design: regimen Single, gender Male, age 6 weeks
MEASUREMENT_PARAMETERS: in vivo, po, 10 mg/kg, 9 h, tissue Plasma, route gavage, dose level Low
ENDPOINT_LABEL: ALP
// return the numeric value with its unit appended

# example entries with known answers
COMPOUND: CC(C)OC(=O)C(C)(C)Oc1ccc(C(=O)c2ccc(Cl)cc2)cc1 [FENOFIBRATE]
RESULT: 1360.4 IU/L

COMPOUND: CC1=C(/C=C/C(C)=C/C=C/C(C)=C/CO)C(C)(C)CCC1
RESULT: 1939.6 IU/L

COMPOUND: CN(C)CCCN1c2ccccc2CCc2ccccc21
RESULT: 1463.6 IU/L

COMPOUND: CN(C)CCCN1c2ccccc2CCc2ccc(Cl)cc21
RESULT: 1512 IU/L

Switching to the query record.
Request: Quick one: ALP of `CN(C)CCN(Cc1cccs1)c1ccccn1` ?
Result: 1429.4 IU/L

* * *

Give measured PL for each item. Keep answers brief.
Organism: Rattus norvegicus
MEASUREMENT_DESCRIPTION: Open TG-GATES - Regimen: Single
Assay type: toxicity, organism-based, Sprague-Dawley
Parameters: regimen Single, gender Male, age 6 weeks
MEASUREMENT_PARAMETERS: in vivo, po, 1000 mg/kg, 6 h, tissue Plasma, route gavage, dose level High
Give bare numbers, in mg/dL.

# example entries with known answers
COMPOUND: CCOC(=O)CCC(=O)O[C@H]1[C@H](O[C@@H]2[C@@H](C)[C@H](O[C@H]3C[C@@](C)(OC)[C@@H](O)[C@H](C)O3)[C@@H](C)C(=O)O[C@H](CC)[C@@](C)(O)[C@H](O)[C@@H](C)C(=O)[C@H](C)C[C@@]2(C)O)O[C@H](C)C[C@@H]1N(C)C [ERYTHROMYCIN ETHYLSUCCINATE]
UNITS_LABEL: mg/dL
RESULT_NUMBER: 140.4

COMPOUND: NC(N)=Nc1nc(CSCCC(N)=NS(N)(=O)=O)cs1
UNITS_LABEL: mg/dL
RESULT_NUMBER: 140.4

COMPOUND: CC(C)OC(=O)C(C)(C)Oc1ccc(C(=O)c2ccc(Cl)cc2)cc1 [FENOFIBRATE]
UNITS_LABEL: mg/dL
RESULT_NUMBER: 116.8

COMPOUND: COC1=CC(=O)C[C@@H](C)[C@]12Oc1c(Cl)c(OC)cc(OC)c1C2=O
UNITS_LABEL: mg/dL
RESULT_NUMBER: 154.6

Switching to the query record.
Request: Quick one: PL of COc1ccc2[nH]c([S+]([O-])Cc3ncc(C)c(OC)c3C)nc2c1 (stereo not given) ?
Result: 145.8

* * *

Organism: Rattus norvegicus
MEASUREMENT_DESCRIPTION: Open TG-GATES - Regimen: Daily Repeat
Assay type: toxicity, organism-based, Sprague-Dawley
Parameters: regimen Daily Repeat, gender Male, age 6 weeks
MEASUREMENT_PARAMETERS: in vivo, po, 1000 mg/kg, 72 h, tissue Plasma, route gavage, dose level High, time 3 day
Give measured A/G for each item. Keep answers brief.
One number for each entry.

# example entries with known answers
MOLECULE: COC1=CC(=O)C[C@@H](C)[C@]12Oc1c(Cl)c(OC)cc(OC)c1C2=O
A/G: 1.6
//
MOLECULE: CCOc1ccc(NC(=O)CC(C)O)cc1 (centres undefined)
A/G: 0.9
//
MOLECULE: CCOC(=O)CCC(=O)O[C@H]1[C@H](O[C@@H]2[C@@H](C)[C@H](O[C@H]3C[C@@](C)(OC)[C@@H](O)[C@H](C)O3)[C@@H](C)C(=O)O[C@H](CC)[C@@](C)(O)[C@H](O)[C@@H](C)C(=O)[C@H](C)C[C@@]2(C)O)O[C@H](C)C[C@@H]1N(C)C [ERYTHROMYCIN ETHYLSUCCINATE]
A/G: 1.2

Switching to the query record.
Request: Quick one: A/G of `NC(N)=Nc1nc(CSCCC(N)=NS(N)(=O)=O)cs1` ?
Result: 1.5

These entries and their values trace back to ChEMBL document CHEMBL3885861.
